# System: NEK6
# details: concentration: 1 μM, replicates: in singlicate; n = 1
attributeMeasured: %Inh (%)
Just the number in %, nothing appended.

Give NEK6 %Inh for "Cc1ccc(C(=O)Nc2ccc(Nc3ccnc4cc(-c5ccccn5)ccc34)cc2O)cc1.Cl"
0

// query: "Cc1c(Cn2ccn3c(=O)cc(N4CCOCC4)nc23)cccc1C(F)(F)F"
0

Please answer likewise for "COc1cc2ncnc(Nc3ccc4nc(-c5ccccc5)[nH]c4c3)c2cc1OC.Cl"
0

Field entry: O=C(Nc1ccc2c(c1)OCO2)NC1CCN(c2ccnc(Nc3ccc(F)cc3)n2)C1 (stereo not shown)
0

Proceed to CCCc1ccc(S(=O)(=O)NC2CCN(c3ccnc(Nc4ccc(F)cc4)n3)C2)cc1 (stereo not shown)
0

Would you mind doing "Fc1cc(Cl)ccc1Nc1ccnc2cc(I)ccc12" as well?
0

// next record "O=C(Nc1ccccc1)Nc1cccc(Oc2ccc3nccn3n2)c1"
0

Try the molecule "CCn1c(-c2cccnc2O)nc2cnccc21"
0

Also "COc1ccc(Nc2nccc(-c3cccc(NC(=O)c4cc5cc(F)ccc5[nH]4)c3)n2)cc1" , if possible.
1

---

# Tested on: CDK2
# details: concentration: 1 μM, replicates: in singlicate; n = 1
Below, each of the compounds is paired with its reported %Inh value.
Unit % implied. Number only.

These solved cases illustrate the format of a correct answer.
compound=Cl.c1ccc(-c2n[nH]cc2-c2ccnc(-c3ccc(CN4CCOCC4)cc3)c2)nc1 attributemeasured=%Inh experimentalresult=0
compound=COC(=O)c1c(-c2ccccc2)c2cc(OC)ccc2c(=O)n1Cc1ccccc1 attributemeasured=%Inh experimentalresult=2
compound=Cn1ccc2ncnc(Oc3ccc(Nc4nc5ccccc5[nH]4)cc3)c21 attributemeasured=%Inh experimentalresult=6
compound=COc1cc2ncnc(Nc3ccc4nc(-c5ccccc5)[nH]c4c3)c2cc1OC.Cl attributemeasured=%Inh experimentalresult=0
compound=COc1cccc(-c2cc(-c3c[nH]nc3-c3ccccn3)ccn2)c1 attributemeasured=%Inh experimentalresult=0
compound=Clc1cc(Cl)cc(Nc2ccnc(Nc3cc(Cl)cc(Cl)c3)n2)c1 attributemeasured=%Inh experimentalresult=0
compound=CC(=O)Nc1nc2cnc(Nc3cc(NC(=O)c4cccc(CCC#N)c4)ccc3C)nc2s1 attributemeasured=%Inh experimentalresult=3
compound=Cl.Oc1ccc(-c2nc(-c3ccccc3)[nH]c2-c2ccncc2)cc1 attributemeasured=%Inh experimentalresult=0
compound=Cc1csc(-c2nc(Nc3ccncc3)c3ccccc3n2)n1 attributemeasured=%Inh experimentalresult=7
compound=COc1ccccc1CNC(=O)c1cc(C(=O)c2ccccc2C)c[nH]1 attributemeasured=%Inh experimentalresult=0

Quick check: %Inh of "Cl.NC(=O)c1cccc(Nc2nccc(Nc3ccc(Oc4cccc(Cl)c4)c(Cl)c3)n2)c1" ?
0

What do you get for "Cc1ccc(C(=O)Nc2ccc(Nc3ccnc4cc(-c5ccccn5)ccc34)cc2O)cc1.Cl" ?
0

Now the compound "Cc1cccc(-c2nc(Nc3cccc(C(N)=O)c3)c3ccccc3n2)n1"
0

---

Recorded %Inh for the following compounds
# Tested on: PIK3CG
# details: concentration: 1 μM, replicates: in singlicate; n = 1
Supply the numeric figure in %, leaving out any unit text.

# count of solved cases: 5
compound="O=C(Nc1n[nH]c2nc(-c3nccs3)c(Br)cc12)C1CCCC1 [SB-742609]" attributemeasured=%Inh experimentalresult=0
compound=CC(=O)Nc1nc2cnc(Nc3cc(NC(=O)c4cccc(CCC#N)c4)ccc3C)nc2s1 attributemeasured=%Inh experimentalresult=8
compound="COc1ccc(Nc2nccc(-c3cccc(NC(=O)c4cc5cc(F)ccc5[nH]4)c3)n2)cc1 [GSK1229782]" attributemeasured=%Inh experimentalresult=2
compound="O=C(Nc1n[nH]c2nc(-c3nccs3)c(Br)cc12)C1CC1 [SB-742251]" attributemeasured=%Inh experimentalresult=0
compound="COc1cccc(-c2cc(-c3c[nH]nc3-c3ccccn3)ccn2)c1 [GW680338]" attributemeasured=%Inh experimentalresult=9

Form field: reported %Inh of "Cn1ccc2ncnc(Oc3ccc(Nc4nc5ccccc5[nH]4)cc3)c21"
0

Continue with Cn1cncc1-c1ccc2ncnc(Nc3ccc(OCc4ccccc4)cc3)c2c1 [GW320571]
6

Also Cc1cc(NCC(c2ccccc2)c2ccccc2)nc(NCc2ccc(C(F)(F)F)cc2)n1 [GW497681] ?
0

And what about the compound Cc1ccc(NC(=O)Nc2cccc(Cl)c2)cc1-c1ccc(C(=O)Nc2ccncc2)cc1 [GSK1398468] ?
0

---

# Test system: LATS2
# details: concentration: 1 μM, replicates: in singlicate; n = 1
Tag: criterion met if measured %Inh is not below 3%, criterion not met if it is.

Threshold query (%Inh >= 3%) on "CS(=O)(=O)c1ccc(-c2c(-c3ncn[nH]3)sc(N3CCOCC3)c2C#N)cc1"
criterion met

Please answer likewise for "CC(C)(C)c1ccc(C(=O)Nc2cn3cc(-c4cccnc4)ccc3n2)cc1"
criterion met

Note, next up: COc1cc2ncn(-c3cc(OCC4CCCO4)c(C(N)=O)s3)c2cc1OC (stereo not shown)
criterion met

Note, next up: "Cc1cc(N2Cc3ccccc3C2)nc(Nc2ccc(S(=O)(=O)N3CCOCC3)cc2)n1.Cl"
criterion met

Please give the result for "Cl.O=C(Nc1cccc(-c2nn3ncccc3c2-c2ccnc(Nc3cccnc3)n2)c1)c1c(F)cccc1F" too.
criterion not met

How about "COc1ccc2nc(-c3cccc(C)n3)nc(Nc3ccncc3)c2c1" ?
criterion not met

---

Here's what we have: pKd numbers for CDKL2.
# pKd is unitless: minus log10 of the molar concentration; print number only

itemsmiles=O=C(Nc1n[nH]c2cc(-c3cccc(F)c3F)ccc12)C1CC1 attributemeasured=pKd experimentalresult=6.52

// moving on: another record for pKd
Item "O=C(Nc1n[nH]c2nc(-c3nccs3)c(Br)cc12)C1CCCC1" has what recorded pKd?
6.30

---

Here the recorded %Inh is given for each entry.
# Test system: PAK4
# details: concentration: 1 μM, replicates: in singlicate; n = 1
Express it in %; write the number only.

Sample answers from the record:
molecule="Cc1cccc(-c2nc(Nc3ccc4[nH]ncc4c3)c3ccccc3n2)n1 [GW857175]" experimentalresult=6
molecule=COC(=O)c1c(-c2ccccc2)c2cc(OC)ccc2c(=O)n1Cc1ccccc1 experimentalresult=9
molecule=Cn1ccc2ncnc(Oc3cccc(C(=O)Nc4ccccc4)c3)c21 experimentalresult=21
molecule=O=C(Nc1ccccc1)Nc1cccc(Oc2ccc3nccn3n2)c1 experimentalresult=0

Consider now this further molecule.
Please give the measured %Inh for this molecule: "COC(=O)c1c(-c2ccccc2)c2cc(C(=O)O)ccc2c(=O)n1Cc1ccccc1"
0

---

Catalogue of molecules with associated %Inh
# Tested on: CSNK2A1
# details: concentration: 1 μM, replicates: in singlicate; n = 1
// return numeric value only (unit: %, not printed)

Below are worked cases with known answers.
itemsmiles=COc1ccccc1-c1ccc2c(NC(=O)C3CC3)n[nH]c2n1 valueunit=% experimentalresult=0
itemsmiles=CC(C)(C)c1ccc(C(=O)Nc2cn3cc(-c4cccnc4)ccc3n2)cc1 valueunit=% experimentalresult=22

Query: %Inh; subject: "O=C(Nc1n[nH]c2cc(-c3cccc(F)c3F)ccc12)C1CC1"
0

Do the same for "COc1cc2nccc(Nc3ccc(NC(=O)c4ccc(C)cc4)c(O)c3)c2cc1OC.Cl" please
0

---

# Test system: ABL1-phosphorylated
# details: concentration: 1 μM, replicates: in singlicate; n = 1
Please enter Condition met where %Inh is greater than or equal to 1%, and Condition not met where it is lower.

molecule=O=C(Nc1ccccc1)Nc1cccc(Oc2ccc3nccn3n2)c1 classassignment="Condition met"

Check if %Inh >= 1% (inclusive). Item: "O=C(O)COc1ncnc2cc(-c3ccc4[nH]ncc4c3)sc12"
Condition met

Now the molecule Cn1cncc1-c1ccc2ncnc(Nc3ccc(OCc4ccccc4)cc3)c2c1 [GW320571]
Condition met

---

# System: DAPK1
# details: concentration: 1 μM, replicates: in singlicate; n = 1
Documented %Inh across a set of molecules
Your answer is read as %, so omit the unit and give the number.

Here's what some known entries look like.
molecule=CS(=O)(=O)c1ccc(-c2c(-c3ncn[nH]3)sc(N3CCOCC3)c2C#N)cc1 experimentalresult=5
molecule=CS(=O)(=O)c1ccc(-c2nc3n(c2-c2ccncc2)CCC3)cc1 experimentalresult=0

Give the measured %Inh of "CN(C)CCN(C)C(=O)c1cc(-c2ccncc2)c(-c2ccc(Cl)c(O)c2)o1.Cl.Cl" .
4

Would you mind doing "Cc1cccc(-c2nc(Nc3ccncc3)c3ccccc3n2)n1" as well?
0

How about this molecule: COc1cc(Nc2nccc(N3CCC(NC(=O)Nc4cc(C)ccc4C)C3)n2)cc(OC)c1OC (stereo not drawn)
0

Okay, and CCCc1ccc(S(=O)(=O)NC2CCN(c3ccnc(Nc4ccc(F)cc4)n3)C2)cc1 (stereo not drawn) ?
0

Item: "CC(C)(C)c1ccc(C(=O)Nc2cn3cc(Cl)ccc3n2)cc1"
20

Next entry: "COc1ccccc1CNC(=O)c1cc(C(=O)c2ccccc2C)c[nH]1"
0

Next up: "Cc1csc(-c2nc(Nc3ccncc3)c3ccccc3n2)n1"
22
